assay: in vitro; conditions: rat, liver microsomes
Quick reference for half-life among some molecules

{"molecule": "COc1ccccc1N1CCN(C(=O)c2cc(-c3ccc(Cl)cc3)n(C)n2)CC1", "uom": "min", "half-life": 40}
{"molecule": "CC(=O)N(C)C1(c2ccccc2)CCN(CCC[C@]2(c3ccc(Cl)c(Cl)c3)CCCN(C(=O)c3ccccc3)C2)CC1 [OSANETANT]", "uom": "min", "half-life": 23}
{"molecule": "COc1ccccc1N1CCN(C(=O)c2cc(-c3ccc(Cl)cc3)n[nH]2)[C@@H](C)C1", "uom": "min", "half-life": 2}
{"molecule": "CC[C@H](NC(=O)c1c(O)c(-c2ccccc2)nc2ccccc12)c1ccccc1 [TALNETANT]", "uom": "min", "half-life": 60}
{"molecule": "COc1ccccc1N1CCN(C(=O)c2cc(-c3ccc(Cl)cc3Cl)n[nH]2)CC1", "uom": "min", "half-life": 45}

###

assay: in vivo; settings: CD1, mouse, brain, ip, 5 mg/kg
recorded metric: concentration at 10 min (ng/g)

{"smiles structure": "CC(=O)N(C)C1(c2ccccc2)CCN(CCC[C@]2(c3ccc(Cl)c(Cl)c3)CCCN(C(=O)c3ccccc3)C2)CC1", "recorded metric": "concentration at 10 min", "experimental value": 30}
{"smiles structure": "CC[C@H](NC(=O)c1c(O)c(-c2ccccc2)nc2ccccc12)c1ccccc1", "recorded metric": "concentration at 10 min", "experimental value": 340}
{"smiles structure": "COc1ccccc1N1CCN(C(=O)c2cc(-c3ccc(Cl)cc3)n(C)n2)CC1", "recorded metric": "concentration at 10 min", "experimental value": 1700}

###

test: in vivo; details: Sprague-Dawley, rat, iv, 1 mg/kg
Quick reference for clearance among some compounds

{"compound": "CC[C@H](NC(=O)c1c(O)c(-c2ccccc2)nc2ccccc12)c1ccccc1 [TALNETANT]", "clearance": "1.9 mL/min/kg"}
{"compound": "CC(=O)N(C)C1(c2ccccc2)CCN(CCC[C@]2(c3ccc(Cl)c(Cl)c3)CCCN(C(=O)c3ccccc3)C2)CC1 [OSANETANT]", "clearance": "57 mL/min/kg"}

###

experiment: in vivo; settings: Sprague-Dawley, rat, plasma, po, 3 mg/kg

{"smiles structure": "CC[C@H](NC(=O)c1c(O)c(-c2ccccc2)nc2ccccc12)c1ccccc1", "AUC": "15.6 µg·h/mL"}
{"smiles structure": "CC(=O)N(C)C1(c2ccccc2)CCN(CCC[C@]2(c3ccc(Cl)c(Cl)c3)CCCN(C(=O)c3ccccc3)C2)CC1", "AUC": "0.114 µg·h/mL"}

###

assay: in vitro; settings: rat, plasma

{"compound": "COc1ccccc1N1CCN(C(=O)c2cc(-c3ccc(Cl)cc3Cl)n[nH]2)CC1", "uom": "%", "remaining at 1 h": 5}
{"compound": "COc1ccccc1N1CCN(C(=O)c2cc(-c3ccc(Cl)cc3)n[nH]2)[C@@H](C)C1", "uom": "%", "remaining at 1 h": 100}
{"compound": "COc1ccccc1N1CCN(C(=O)c2cc(-c3ccc(Cl)cc3)n(C)n2)CC1", "uom": "%", "remaining at 1 h": 100}
{"compound": "CC[C@H](NC(=O)c1c(O)c(-c2ccccc2)nc2ccccc12)c1ccccc1 [TALNETANT]", "uom": "%", "remaining at 1 h": 100}

###

test: in vivo; conditions: CD1, mouse, brain/plasma, ip, 5 mg/kg
Quick reference for Kp at 10 min among some molecules

{"molecule": "CC(=O)N(C)C1(c2ccccc2)CCN(CCC[C@]2(c3ccc(Cl)c(Cl)c3)CCCN(C(=O)c3ccccc3)C2)CC1 [OSANETANT]", "Kp at 10 min": 0.03}
{"molecule": "CC[C@H](NC(=O)c1c(O)c(-c2ccccc2)nc2ccccc12)c1ccccc1 [TALNETANT]", "Kp at 10 min": 0.07}
{"molecule": "COc1ccccc1N1CCN(C(=O)c2cc(-c3ccc(Cl)cc3)n(C)n2)CC1", "Kp at 10 min": 0.64}
